Give measured Kd for each item. Keep answers brief.
Tested target: T1, CEA-derived … (SEQ ID NO: 71)-HLA-A*0201 complex (biotin on the C-terminal biotinylation tag (enzymatic, BirA))
T1 construct: also called soluble biotinylated HLA-A2-peptide complex; not shown: C-terminal biotinylation tag that replaces the transmembrane and cytoplasmic domains
Procedure summary: Biacore SPR, pMHC immobilised

Data request, read-out Kd, for SEQ ID NO 34 (receptor) MAGHLPKPTLWAEPGSVITQGSPVTLRCQGGQETQEYRLYREKKTAPWITRIPQELVKKGQFPIPSITWEHAGRYRCYYGSDTSQWSASSDPLELVVTGVYIKPTLSAQPSPVVNSGGNVTLQCDSQVAFDGFILCKEGEDEHPQCLNSQPHARGSSRAIFSVGPVSPSRRWWYRCYAYMNWAPYEWSLPSDLLELDVDG
≤ 1000 nM

SEQ ID NO 21 (receptor) MAGHLPKPTLWAEPGSVITMDQPVTLRCQGGQETQEYRLYREKKTAPWITRIPQELVKKGQFPIPSITWEHAGRYRCYYGSDTSQWSASSDPLELVVTGVYIKPTLSAQPSPVVNSGGNVTLQCDSQVAFDGFILCKEGEDEHPQCLNSQPHARGSSRAIFSVGPVSPSRRWWYRCYAYPWFTPYEWSLPSDLLELDVDG , same question.
≤ 1000 nM

SEQ ID NO 42 (receptor) MHLPKPTLWAEPGSVITLQSPLTLRCQGGQETQQYRLYREKKTAPWITRIPQELVKKGQFPIPSITWEHAGRYRCYYGSDTRQWSASSDPLELVVTGVYIKPTLSAQPSPVVNSGGNVTLQCDSQVAFDGFILCKEGEDDHPQCLNSQPHARGSSRAIFSVGPVSPSRRWRYRCYAYDSNSPYEWSLPSDLLELDVDG , same question.
≤ 1000 nM
